# Tested on: 349418-098-R-PDC complex spheroid growth
# Method: Anticancer human tumor 349418-098-R-PDC patient-derived lung adenocarcinoma cell line growth inhibition [AhR]
# Test Conditions: second compound 0.316 µM; first compound 0.316 µM; stronger effect = lower value
Metric Name: viability, T/C (%)
Numbers only, in %.

Please review the following examples before continuing.
| Compound | Quantitative Readout |
| --- | --- |
| NS(=O)(=O)OCC1CC(n2ccc3c(NC4CCc5ccccc54)ncnc32)CC1O (configuration not stated) + CC(CO)NC(=O)c1cc(-c2ccc(Cl)cc2)nn(-c2cnn(C)c2)c1=O | 24.7 |
| CC(C)c1c(-c2ccccc2)nc2c(C#N)c[nH]n2c1=O + Cc1ccccc1N=Nc1ccc(NC(=O)c2ccnn2C)c(C)c1 | 86.2 |
| CC1(C)CCC(CN2CCN(c3ccc(C(=O)NS(=O)(=O)c4ccc(NCC5CCOCC5)c([N+](=O)[O-])c4)c(Oc4cnc5[nH]ccc5c4)c3)CC2)=C(c2ccc(Cl)cc2)C1 + CC(CO)NC(=O)c1cc(-c2ccc(Cl)cc2)nn(-c2cnn(C)c2)c1=O | 70.2 |
| NS(=O)(=O)OCC1CC(n2ccc3c(NC4CCc5ccccc54)ncnc32)CC1O (configuration not stated) + Cc1cncc(-c2nc(NCCc3c[nH]c4ccccc34)c3ncn(C(C)C)c3n2)c1 | 19 |
| COc1cc(Nc2ncc3c(n2)-c2ccc(Cl)cc2C(c2c(F)cccc2OC)=NC3)ccc1C(=O)O + CC(CO)NC(=O)c1cc(-c2ccc(Cl)cc2)nn(-c2cnn(C)c2)c1=O | 29.5 |

For the 5 compounds below, give their viability, T/C values.
1. CC1(C)CCC(CN2CCN(c3ccc(C(=O)NS(=O)(=O)c4ccc(NCC5CCOCC5)c([N+](=O)[O-])c4)c(Oc4cnc5[nH]ccc5c4)c3)CC2)=C(c2ccc(Cl)cc2)C1 + Cc1cncc(-c2nc(NCCc3c[nH]c4ccccc34)c3ncn(C(C)C)c3n2)c1
2. CC1COCCN1c1cc(C2(S(C)(=N)=O)CC2)nc(-c2ccnc3[nH]ccc23)n1 (configuration not stated) + CC(CO)NC(=O)c1cc(-c2ccc(Cl)cc2)nn(-c2cnn(C)c2)c1=O
3. O=C(c1cc(Cc2n[nH]c(=O)c3ccccc23)ccc1F)N1CCN(C(=O)C2CC2)CC1 + CC(CO)NC(=O)c1cc(-c2ccc(Cl)cc2)nn(-c2cnn(C)c2)c1=O
4. Nc1ncn(C2CC(O)C(CO)O2)c(=O)n1 (configuration not stated) + Cc1ccccc1N=Nc1ccc(NC(=O)c2ccnn2C)c(C)c1
5. COc1ccc([C@@H](O)c2cc(-c3ncnc4cc(N5CCOCC5)ccc34)c(F)cc2Cl)nn1 + Cc1ccccc1N=Nc1ccc(NC(=O)c2ccnn2C)c(C)c1

**Result**
103
66.8
89.7
37.7
63.1

For the 6 compounds below, give their viability, T/C values.
1. CC1COCCN1c1cc(-c2ccnn2C)c2ccnc(-c3ccn[nH]3)c2n1 (configuration not stated) + CC(CO)NC(=O)c1cc(-c2ccc(Cl)cc2)nn(-c2cnn(C)c2)c1=O
2. CC1COCCN1c1cc(C2(S(C)(=N)=O)CC2)nc(-c2ccnc3[nH]ccc23)n1 (configuration not stated) + Cc1ccccc1N=Nc1ccc(NC(=O)c2ccnn2C)c(C)c1
3. COc1cc(Nc2ncc3c(n2)-c2ccc(Cl)cc2C(c2c(F)cccc2OC)=NC3)ccc1C(=O)O + Cc1ccccc1N=Nc1ccc(NC(=O)c2ccnn2C)c(C)c1
4. Nc1ccn(C2OC(CO)C(O)C2(F)F)c(=O)n1 (configuration not stated) + CC(CO)NC(=O)c1cc(-c2ccc(Cl)cc2)nn(-c2cnn(C)c2)c1=O
5. CC1COCCN1c1cc(-c2ccnn2C)c2ccnc(-c3ccn[nH]3)c2n1 (configuration not stated) + Cc1cncc(-c2nc(NCCc3c[nH]c4ccccc34)c3ncn(C(C)C)c3n2)c1
6. Nc1ccccc1NC(=O)c1ccc(CNC(=O)OCc2cccnc2)cc1 + Cc1cncc(-c2nc(NCCc3c[nH]c4ccccc34)c3ncn(C(C)C)c3n2)c1

**Result**
1: 15.8; 2: 78.6; 3: 29.8; 4: 13.3; 5: 15.7; 6: 57.3

For the 6 compounds below, give their viability, T/C values.
1. O=C(C=Cc1cccc(S(=O)(=O)Nc2ccccc2)c1)NO + Cc1ccccc1N=Nc1ccc(NC(=O)c2ccnn2C)c(C)c1
2. Nc1ccccc1NC(=O)c1ccc(CNC(=O)OCc2cccnc2)cc1 + CC(CO)NC(=O)c1cc(-c2ccc(Cl)cc2)nn(-c2cnn(C)c2)c1=O
3. CC1(C)CCC(CN2CCN(c3ccc(C(=O)NS(=O)(=O)c4ccc(NCC5CCOCC5)c([N+](=O)[O-])c4)c(Oc4cnc5[nH]ccc5c4)c3)CC2)=C(c2ccc(Cl)cc2)C1 + Cc1ccccc1N=Nc1ccc(NC(=O)c2ccnn2C)c(C)c1
4. COc1cccc2c1C(=O)c1c(O)c3c(c(O)c1C2=O)CC(O)(C(=O)CO)CC3OC1CC(N)C(O)C(C)O1 (configuration not stated) + CC(CO)NC(=O)c1cc(-c2ccc(Cl)cc2)nn(-c2cnn(C)c2)c1=O
5. COc1cc(C2c3cc4c(cc3C(OC3OC5COC(C)OC5C(O)C3O)C3COC(=O)C23)OCO4)cc(OC)c1O (configuration not stated) + Cc1cncc(-c2nc(NCCc3c[nH]c4ccccc34)c3ncn(C(C)C)c3n2)c1
6. COc1cccc2c1C(=O)c1c(O)c3c(c(O)c1C2=O)CC(O)(C(=O)CO)CC3OC1CC(N)C(O)C(C)O1 (configuration not stated) + Cc1cncc(-c2nc(NCCc3c[nH]c4ccccc34)c3ncn(C(C)C)c3n2)c1

**Result**
1: 82.8; 2: 81.7; 3: 64.4; 4: 3.63; 5: 58.3; 6: 1.16

* * *

Can you tell me viability, T/C for the items I'm about to list?
# Tested on: 349418-098-R-PDC complex spheroid growth
# Method: Anticancer human tumor 349418-098-R-PDC cell line growth inhibition [AhR];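 note: spheroids also contain HUVEC endothelial cells and human MSC stroma; spheroids exposed to agents for seven days before luminescence viability read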
# Test Conditions: second compound 3.16 µM; first compound 3.16 µM; stronger effect = lower value
Numbers only, in %.

| Molecule | System Tested | viability, T/C, % |
| --- | --- | --- |
| Nc1ccn(C2OC(CO)C(O)C2(F)F)c(=O)n1 (stereo not given) + Cc1ccccc1N=Nc1ccc(NC(=O)c2ccnn2C)c(C)c1 | 349418-098-R-PDC complex spheroid growth | 13 |
| COc1cccc2c1C(=O)c1c(O)c3c(c(O)c1C2=O)CC(O)(C(=O)CO)CC3OC1CC(N)C(O)C(C)O1 (stereo not given) + Cc1ccccc1N=Nc1ccc(NC(=O)c2ccnn2C)c(C)c1 | 349418-098-R-PDC complex spheroid growth | 4.34 |
| Nc1ccn(C2OC(CO)C(O)C2(F)F)c(=O)n1 (stereo not given) + CC(CO)NC(=O)c1cc(-c2ccc(Cl)cc2)nn(-c2cnn(C)c2)c1=O | 349418-098-R-PDC complex spheroid growth | 7.92 |
| CC(C)c1c(-c2ccccc2)nc2c(C#N)c[nH]n2c1=O + CC(CO)NC(=O)c1cc(-c2ccc(Cl)cc2)nn(-c2cnn(C)c2)c1=O | 349418-098-R-PDC complex spheroid growth | 56.4 |

**Query** State its viability, T/C on 349418-098-R-PDC complex spheroid growth: O=C(C=Cc1cccc(S(=O)(=O)Nc2ccccc2)c1)NO + Cc1ccccc1N=Nc1ccc(NC(=O)c2ccnn2C)c(C)c1
**Result** 8.53

* * *

# Test system: 349418-098-R-PDC complex spheroid growth
# Method: Anticancer human tumor 349418-098-R-PDC cell line growth inhibition [AhR];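 note: spheroids also contain HUVEC endothelial cells and human MSC stroma; spheroids exposed to agents for seven days before luminescence viability read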
# Test Conditions: second compound 10 µM; first compound 0.00949 µM; stronger effect = lower value
Metric Name: viability, T/C (%)
Give bare numbers, in %.

Please review the following examples before continuing.
| Compound | viability, T/C / % |
| --- | --- |
| O=C(C=Cn1cnc(-c2cc(C(F)(F)F)cc(C(F)(F)F)c2)n1)NNc1cnccn1 + Cc1ccccc1N=Nc1ccc(NC(=O)c2ccnn2C)c(C)c1 | 34.6 |
| Nc1ncn(C2CC(O)C(CO)S2)c(=O)n1 (configuration not stated) + Cc1cncc(-c2nc(NCCc3c[nH]c4ccccc34)c3ncn(C(C)C)c3n2)c1 | 2.49 |
| O=C(C=Cn1cnc(-c2cc(C(F)(F)F)cc(C(F)(F)F)c2)n1)NNc1cnccn1 + CC(CO)NC(=O)c1cc(-c2ccc(Cl)cc2)nn(-c2cnn(C)c2)c1=O | 36.1 |
| CCc1c2c(nc3ccc(O)cc13)-c1cc3c(c(=O)n1C2)COC(=O)[C@]3(O)CC + Cc1cncc(-c2nc(NCCc3c[nH]c4ccccc34)c3ncn(C(C)C)c3n2)c1 | 0.76 |
| CCc1c2c(nc3ccc(O)cc13)-c1cc3c(c(=O)n1C2)COC(=O)[C@]3(O)CC + Cc1ccccc1N=Nc1ccc(NC(=O)c2ccnn2C)c(C)c1 | 15.2 |

For the 2 compounds below, give their viability, T/C values.
1. CCN(c1cc(-c2ccc(CN3CCOCC3)cc2)cc(C(=O)NCc2c(C)cc(C)[nH]c2=O)c1C)C1CCOCC1 + Cc1ccccc1N=Nc1ccc(NC(=O)c2ccnn2C)c(C)c1
2. Nc1ncn(C2CC(O)C(CO)S2)c(=O)n1 (configuration not stated) + Cc1ccccc1N=Nc1ccc(NC(=O)c2ccnn2C)c(C)c1

**Result**
[59.4, 65.7]
